# target of assay: human CCR5 (human, UniProt P51681 1-352)
# protocol description: radioligand binding
result type: pKi
Interpret pKi as the negative base-10 log of the concentration measured in mol/L.

Entry under review: unlabeled macrophage inflammatory protein (MIP)-1β (ligand, UniProt P13236 24-92, looked up) APMGSDPPTACCFSYTARKLPRNFVVDYYETSSLCSQPAVVFQTKRSKQVCADPSESWVQEYVYDLELN . Reported pKi?
9.70
